We begin with a simple list: items and their reported Kd.
TESTED_TARGET: T1, PUF4 RNA-binding domain (Saccharomyces cerevisiae, UniProt P25339 537-888)
T1 sequence: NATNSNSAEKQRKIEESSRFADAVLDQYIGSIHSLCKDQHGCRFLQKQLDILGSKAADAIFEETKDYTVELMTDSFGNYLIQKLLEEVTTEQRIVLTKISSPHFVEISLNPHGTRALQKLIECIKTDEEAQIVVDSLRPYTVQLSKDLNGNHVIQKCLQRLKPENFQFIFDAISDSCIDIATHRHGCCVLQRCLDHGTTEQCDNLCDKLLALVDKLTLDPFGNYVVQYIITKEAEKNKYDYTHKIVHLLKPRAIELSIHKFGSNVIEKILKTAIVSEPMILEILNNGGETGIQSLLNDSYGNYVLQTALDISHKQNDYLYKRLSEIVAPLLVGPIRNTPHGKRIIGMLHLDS
ASSAY_TEXT: Mg; RNA-MaP; 20 mM Na-HEPES pH 7.4, 30 mM KOAc, 0.75 mM MgCl2, 0.1% Tween-20, 5% glycerol, 0.1 mg/mL BSA, 2 mM DTT; 25 C; 0.0125-409.6 nM protein
CONDITION_INFO: tags: N-His6-TEV cleaved; C-SNAP kept, Cy3B-labelled; label: tethered on chip by stalled RNA polymerase
MEASURED_QUANTITY: Kd

# BINDER, MEASURED_QUANTITY, READING
rows = [
    ("UCUCUUUGUAUUACCUCUUAUCUCUU (ssRNA) [Ie_S1_P5E.1_K5.1_C5.1_H5.1_A5.1_[+7CCTC]_F5.1_T5.1]", "Kd", "428 nM"),
    ("UCUCUUUUUAUAUAUUAUGUCUCUU (ssRNA) [Id_ii_S1_P4E.3_K4.2_C4.2_[C-2T]_H4.2_A4.1_F4.1_T4.2_[G10T]_[T11G]]", "Kd", "17.9 nM"),
    ("Id_iii_S2_P3E.7_K3.3_C3.3_[T-1C]_H3.3_A3.1_F3.1_T3.2 (ssRNA) RNA: UUUGAUUAAUAUGAUAUCGUUCUUUCUUCCACACUAUAUAUUCUUUCUCGAUAUCAUAUUAAUCUUU", "Kd", "321 nM"),
    ("Id_ii_S2_P4E.2_K4.1_C4.2_H4.1_A4.1_F4.1_T4.2_[G10A] (ssRNA) RNA: UUUGAUUAAUAUGAUAUCGUUCUUUCUCUUGUAUAUUAAUUUCUUUCUCGAUAUCAUAUUAAUCUUU", "Kd", "0.317 nM"),
    ("UCUCUUUGUAUCUCAUUAUCUCUU (ssRNA) [Ie_S1_P4E.1_K4.1_C4.1_H4.1_A4.1_[+5CTC]_F4.1_T4.1]", "Kd", "37.1 nM"),
    ("UCUCUUCUUGUACCUCUAUAUAUCUCUU (ssRNA) [Ie_S1_P3E.2_K3.1_C3.2_H3.1_[+4CCTC]_A3.1_F3.1_T3.2]", "Kd", "12.4 nM"),
    ("UCUCUUUGUACCUCUAUUAUCUCUU (ssRNA) [Ie_S1_P4E.1_K4.1_C4.1_H4.1_[+4CCTC]_A4.1_F4.1_T4.1]", "Kd", "12.7 nM"),
    ("Ia_S2_P5E.1_K5.1_C5.1_H5.1_[T1A]_A5.1_F5.1_T5.1 (ssRNA) RNA: UUUGAUUAAUAUGAUAUCGUUCUUUCUAGUAUUAUUAUUCUUUCUCGAUAUCAUAUUAAUCUUU", "Kd", "> 2300 nM"),
    ("Ib_S4_P3E.1_K3.1_C3.1_H3.1_[T1A]_A3.1_[T5C]_F3.1_T3.1 (ssRNA) RNA: UUUGACAACUGAUCGUUCUUUCUAGUACAUAUUCUUUCUCGAUCAGUUGUCUUU", "Kd", "> 2300 nM"),
    ("UCUCUUACUAUAUUAUUACUUCUCUU (ssRNA) [Id_ii_S1_P5E.3_K5.2_C5.2_[C-2A]_[T-1C]_H5.2_A5.1_F5.1_T5.2_[T11C]_[A12T]]", "Kd", "486 nM"),
    ("UCUCUUUGUACAAGUCUCUU (ssRNA) [Ic_S1_P3E.1_K3.1_C3.1_H3.1_A3.1_[T5C]_F3.1_[T7A]_[A8G]_T3.1]", "Kd", "704 nM"),
    ("Id_ii_S2_P3E.3_K3.2_C3.2_H3.2_A3.1_F3.1_T3.2_[T9C]_[A10G] (ssRNA) RNA: UUUGAUUAAUAUGAUAUCGUUCUUUCUCUUAUAUAUACGUUCUUUCUCGAUAUCAUAUUAAUCUUU", "Kd", "292 nM"),
]
